- system under test: T1, recombinant, phycoerythrin (PE) labeled, BCMA extracellular domain-FC fusion protein (Homo sapiens (Human), UniProt Q02223 1-54, phycoerythrin (PE) label)
- T1 construct: The whole entry is named here; only the extracellular domain stood in the assay; also called BCMA-PE; not shown: Fc part of the staining reagent
- T1 sequence: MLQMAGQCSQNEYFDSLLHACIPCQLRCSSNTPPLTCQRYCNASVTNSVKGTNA
- measurement notes: flow cytometry of transduced PBMCs stained with BCMA-PE (PE-labeled BCMA extracellular domain-Fc)
measurement name: binding result

binder	reported measurement
anti-BCMA CAR of recombinant lentivirus LV 18 (SEQ ID NO: 283) (receptor) EVQLLESGGGLVQPGGSLRLSCAASGFTFSSEGMSWVRQAPGKERELVSAISGSGDHTYYADSVRGRFTISRDNSKNTLYLQMNSLRAEDTAVYYCNALEGGPTTAIQPGGPDYWGQGTQVTVSSTTTPAPRPPTPAPTIASQPLSLRPEACRPAAGGAVHTRGLDFACDIYIWAPLAGTCGVLLLSLVITLYCKRGRKKLLYIFKQPFMRPVQTTQEEDGCSCRFPEEEEGGCELRVKFSRSADAPAYQQGQNQLYNELNLGRREEYDVLDKRRGRDPEMGGKPRRKNPQEGLYNELQKDKMAEAYSEIGMKGERRRGKGHDGLYQGLSTATKDTYDALHMQALPPR	binds

// data source = patent US20250099587A1
